Target: Orexin type 1 (OX1R) receptor (Homo sapiens)
Construct: expressed in transfected cells; host or cells: CHO cells (G418 selection)
Sequence (O43613 whole entry): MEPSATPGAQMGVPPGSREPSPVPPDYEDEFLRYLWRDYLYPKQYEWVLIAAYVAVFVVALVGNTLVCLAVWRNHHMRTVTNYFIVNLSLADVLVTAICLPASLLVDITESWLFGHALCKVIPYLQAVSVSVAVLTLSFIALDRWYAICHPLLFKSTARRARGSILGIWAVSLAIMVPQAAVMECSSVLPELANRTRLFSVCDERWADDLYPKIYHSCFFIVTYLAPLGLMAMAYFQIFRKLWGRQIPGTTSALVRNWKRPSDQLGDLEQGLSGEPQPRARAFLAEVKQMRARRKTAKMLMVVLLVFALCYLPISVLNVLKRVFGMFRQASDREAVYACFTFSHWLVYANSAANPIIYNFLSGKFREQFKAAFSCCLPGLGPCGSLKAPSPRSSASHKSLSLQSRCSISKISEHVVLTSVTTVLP
Assay: In vitro orexin antagonism assay: intracellular calcium measurement (FLIPR), orexin-A 3 nM as agonist
Format: cell-based
Details: read-out: OX1R, % Inh. @ 1 uM
Measurement Type: inhibition at 1 µM (%)

Examples with their reported inhibition at 1 µM follow.
> print(dat)
                              sample.smiles  endpoint.unit  value
1  O=C(c1c(-c2ccccc2)nc2ccc(F)cn12)N1CC[C@H]1Cn1ccc(-c2ccc(F)cc2)n1              %     25
2  O=C(c1c(-c2ccc(F)cc2)nn2ccccc12)N1CCC[C@H]1Cn1ccc(-c2ccccc2)n1              %   98.8
3  O=C(c1c(-c2ccccc2F)nn2ccccc12)N1[C@H](Cn2ccc(-c3ccc(F)cc3)n2)C[C@@H]2C[C@@H]21              %     91

I. O=C(c1nc2ccccn2c1-c1ccccc1)N1CCC[C@H]1Cc1nc(-c2ccc(F)cn2)no1
II. O=C(c1nn2c(c1-c1ccccn1)OCCC2)N1CCC[C@H]1Cc1nc(-c2ccccn2)no1
Input: Compare I and II and name the one whose reported inhibition at 1 µM is smaller. Your choice should be expressed through its label.
Output: II
(II: 64%, I: 100%)

---

Target: human orexin-2 receptor (OX2R) (Homo sapiens)
Construct: expressed in transfected cells; host or cells: CHO cells (G418 selection)
Sequence (O43614 whole entry): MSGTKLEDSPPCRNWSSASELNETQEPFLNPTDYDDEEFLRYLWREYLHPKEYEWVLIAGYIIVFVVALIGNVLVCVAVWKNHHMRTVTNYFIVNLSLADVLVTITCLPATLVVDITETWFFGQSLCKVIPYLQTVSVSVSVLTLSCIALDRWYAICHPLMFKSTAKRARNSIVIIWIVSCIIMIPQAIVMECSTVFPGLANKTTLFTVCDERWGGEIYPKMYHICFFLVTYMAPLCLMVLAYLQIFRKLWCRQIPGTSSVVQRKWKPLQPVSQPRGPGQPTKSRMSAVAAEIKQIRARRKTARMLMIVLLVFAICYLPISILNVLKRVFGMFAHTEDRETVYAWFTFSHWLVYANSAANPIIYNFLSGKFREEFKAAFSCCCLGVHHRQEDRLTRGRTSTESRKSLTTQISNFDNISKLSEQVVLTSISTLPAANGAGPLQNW
Assay: In vitro orexin antagonism assay: intracellular calcium measurement (FLIPR), orexin-A 3 nM as agonist
Format: cell-based
Settings: read-out: OX2R, % Inh. @ 1 uM
Measurement Type: inhibition at 1 µM (%)

Below are worked cases with known answers.
> print(dat)
                              sample.smiles  endpoint.unit  value
1  O=C(c1c(-c2ccccn2)nn2ccccc12)N1CCC[C@H]1COc1ccc(C(F)(F)F)cn1              %     49
2  O=C(c1nn2c(c1-c1ccccn1)CCOC2)N1CCC[C@H]1Cc1nc(-c2ccc(F)cn2)no1              %     12
3  O=C(c1c(-c2ccccc2)nc2cc(C(F)(F)F)ccn12)N1CCC[C@H]1Cn1cc(-c2ccc(F)cn2)cn1              %     63
4  O=C(c1nn2cccnc2c1-c1ccccc1)N1CCC[C@H]1Cn1ccc(-c2ccccn2)n1              %     52
5  O=C(c1c(-c2ccccc2F)nn2ccccc12)N1CCC[C@H]1Cn1cc(-c2ccccn2)cn1              %     64

1. C[C@@]1(COc2ccc(C(F)(F)F)cn2)CCCN1C(=O)c1c(-c2ccccc2)nn2ccccc12
2. O=C(c1c(-c2ccccc2)nn2c1COCC2)N1CCOC[C@H]1COc1ccc(C(F)(F)F)cn1
3. C[C@@]1(COc2cnc(C(F)(F)F)cn2)CCCN1C(=O)c1c(-c2ccccn2)nn2ccccc12
4. O=C(c1c(-c2ccccc2)nc2ccc(F)cn12)N1CCC[C@H]1Cn1ccc(-c2ccc(F)cn2)n1
Input: Provide the items ranked by increasing inhibition at 1 µM. Thanks in advance for listing the labels in the requested order.
Output: 2, 3, 1, 4

---

Biological target: human orexin-2 receptor (OX2R) (Homo sapiens)
Construct: expressed in transfected cells; host or cells: CHO cells (G418 selection)
Assay: In vitro orexin antagonism assay: intracellular calcium measurement (FLIPR), orexin-A 3 nM as agonist
Assay type: cell-based
Conditions: read-out: OX2R, % Inh. @ 1 uM
Measurement Type: inhibition at 1 µM (%)

Sample records with inhibition at 1 µM:
> print(dat)
                                   compound  value
1  O=C(c1c(-c2ccccc2)nc2ccccn12)N1CCC[C@H]1CNc1ccc(F)cn1 [Example 33]    0.7
2  O=C(c1nc2ccccn2c1-c1ccccn1)N1CCC[C@H]1Cn1ccc(-c2ccccn2)n1 [Example 180]     27

P. O=C(c1nn2cccnc2c1-c1ccccc1)N1CCC[C@H]1Cn1ccc(-c2ccccc2)n1 [Example 136]
Q. O=C(c1nc2ccccn2c1-c1ccccn1)N1CCC[C@H]1Cn1ccc(-c2ccc(F)cn2)n1 [Example 207]
Input: Could you determine which record has the numerically smaller inhibition at 1 µM? Candidates: P and Q The response must carry the label of the picked entry.
Output: Q
(Q: 0%, P: 74%)

A. O=C(c1nc2ccccn2c1-c1ccccn1)N1CCC[C@H]1Cn1cc(-c2ccc(F)cn2)cn1 [Example 208]
B. O=C(c1nn2c(c1-c1ccccc1)COCC2)N1[C@@H]2CC[C@@H](C2)[C@H]1COc1ccc(C(F)(F)F)cn1 [Example 152]
C. C[C@@H]1CCCN(C(=O)c2c(-c3ccccc3)nc3ncccn23)[C@@H]1CNc1ccc(C(F)(F)F)cn1 [Example 34]
Input: Order the entries by their reported inhibition at 1 µM, beginning at the minimum. A ranking is expressed here by listing the labels in the requested order.
Output: C, B, A
(C: 1.8%, B: 16%, A: 52%)

1. O=C(c1c(-c2ccc(F)cc2)nn2c1COCC2)N1CCC[C@H]1Cn1ccc(-c2ccc(F)cc2)n1 [Example 54]
2. O=C(c1nc2n(c1-c1ccccn1)CCOC2)N1CCC[C@H]1Cc1nc(-c2ccccn2)no1 [Example 219]
Input: When the recorded inhibition at 1 µM values are compared, which is smaller: that of 1 or that of 2 ? Answer format: the label of the selected item.
Output: 2
(2: 0%, 1: 45.1%)

---

Molecular target: human orexin-2 receptor (OX2R) (Homo sapiens)
Construct: expressed in transfected cells; host or cells: CHO cells (G418 selection)
Test: In vitro orexin antagonism assay: intracellular calcium measurement (FLIPR), orexin-A 3 nM as agonist
Assay type: cell-based
Conditions: second value of IC50/Kb cell
Protocol: Antagonistic activities on both orexin receptors have been measured for each example compound using the following procedure: In Vitro Orexin Antagonism Measurement Assay: Intracellular Calcium Measurements: […] Within the Fluorescent Imaging Plate Reader (FLIPR Tetra, Molecular Devices), antagonists are added to the plate in a volume of 10 μL/well, incubated for 120 min and finally 10 μL/well of agonist is added. […] The calculated IC50values may fluctuate depending on the daily cellular assay performance. […]
Measurement Type: Kb (nM)

> print(dat)
                               sample.smiles  value
 1  O=C(c1c(-c2ccccc2)nn2cccnc12)N1CCC[C@H]1Cn1ccc(-c2ccccn2)n1     32
 2  O=C(c1c(-c2ccccc2)nc2cc(C(F)(F)F)ccn12)N1CCC[C@H]1Cn1cc(-c2ccccc2)cn1     14
 3  O=C(c1c(-c2ccccc2)nc2cc(F)ccn12)N1CCC[C@H]1Cn1ccc(-c2ccc(F)cc2)n1      3
 4  O=C(c1c(-c2ccccc2)nc2cc(C(F)(F)F)ccn12)N1CCC[C@H]1Cn1cc(-c2ccccn2)cn1     13
 5  O=C(c1c(-c2ccccn2)nn2ccccc12)N1CCC[C@H]1Cn1ccc(-c2ccccc2)n1      3
 6  O=C(c1c(-c2ccccc2)nc2cc(C(F)(F)F)ccn12)N1CCC[C@H]1Cn1cc(-c2ccc(F)cn2)cn1     12
 7  O=C(c1c(-c2ccccc2F)nn2ccccc12)N1CCC[C@H]1Cn1cc(-c2ccccn2)cn1     30
 8  O=C(c1nn2c(c1-c1ccccc1)OCCC2)N1CCC[C@H]1Cn1ccc(-c2ccccc2)n1     19
 9  O=C(c1c(-c2ccccc2)nc2cc(C(F)(F)F)ccn12)N1CCC[C@H]1Cn1ccc(-c2ccccn2)n1     48
10  O=C(c1nn2ccccc2c1-c1ccccc1)N1CCC[C@H]1Cn1ccc(-c2ccc(F)cn2)n1      8

A. O=C(c1c(-c2ccccc2)nc2cc(C(F)(F)F)ccn12)N1CCC[C@H]1Cn1ccc(-c2ccc(F)cn2)n1
B. O=C(c1nn2cccnc2c1-c1ccccc1)N1CCC[C@H]1Cn1ccc(-c2ccccn2)n1
Input: Choose between A and B : whose measured Kb value is numerically larger? Provide the label of your selected option as the answer.
Output: B

P. O=C(c1c(-c2ccccc2)nc2cc(C(F)(F)F)ccn12)N1CCC[C@H]1Cn1ccc(-c2ccc(F)cc2)n1
Q. O=C(c1c(-c2ccccc2)nc2ccc(F)cn12)N1CCC[C@H]1Cn1cc(-c2ccc(F)cn2)cn1
R. O=C(c1c(-c2ccccc2)nn2cccnc12)N1CCC[C@H]1Cn1ccc(-c2ccccc2)n1
S. O=C(c1nn2c(c1-c1ccccc1)OCCC2)N1CCC[C@H]1Cn1ccc(-c2ccccn2)n1
Input: Arrange these 4 compounds in increasing order of Kb. List each label, following the requested order.
Output: P, R, Q, S
(P: 5 nM, R: 14 nM, Q: 70 nM, S: 110 nM)

---

Molecular target: human k-opioid receptor (kOR) (Homo sapiens)
Construct: expressed in transfected cells; host or cells: RBL cells (membrane homogenates)
Sequence (P41145 whole entry): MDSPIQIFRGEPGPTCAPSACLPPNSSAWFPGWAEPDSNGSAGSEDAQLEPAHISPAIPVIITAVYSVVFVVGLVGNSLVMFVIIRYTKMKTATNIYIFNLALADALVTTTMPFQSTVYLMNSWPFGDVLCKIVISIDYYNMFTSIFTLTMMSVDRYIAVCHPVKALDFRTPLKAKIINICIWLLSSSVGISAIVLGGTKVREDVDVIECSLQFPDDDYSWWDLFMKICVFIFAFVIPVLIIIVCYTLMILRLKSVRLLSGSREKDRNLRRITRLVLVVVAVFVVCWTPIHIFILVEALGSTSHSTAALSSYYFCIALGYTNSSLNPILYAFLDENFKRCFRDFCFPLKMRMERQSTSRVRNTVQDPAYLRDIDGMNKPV
Experiment: Human k-opioid (KOP) receptor (agonist radioligand [3H]U-69593) binding assay, transfected RBL cell membranes
Conditions: read-out: KOR % Inh. @ 1 uM
Measurement Type: inhibition at 1 µM (%)

// below: answered compounds
> print(dat)
                              sample.smiles  value
1  C[C@@]1(COc2ccc(C(F)(F)F)cn2)CCCN1C(=O)c1c(-c2ccccc2)nn2cccnc12      2
2  O=C(c1c(-c2ccccc2)nc2ccc(F)cn12)N1[C@H](Cn2ccc(-c3ccc(F)cc3)n2)C[C@@H]2C[C@@H]21     91
3  O=C(c1nn2ccccc2c1-c1ccccc1)N1CCC[C@H]1Cn1ccc(-c2ccc(F)cn2)n1     21
4  O=C(c1c(-c2ccccc2F)nn2ccccc12)N1CCC[C@H]1COc1ccc(C(F)(F)F)cn1     37
5  C[C@@H]1CCCN(C(=O)c2c(-c3ccccc3)nn3c2COCC3)[C@@H]1CNc1ccc(C(F)(F)F)cn1     35
6  C[C@@]1(COc2ccc(C(F)(F)F)cn2)CCCN1C(=O)c1nc2ccccn2c1-c1ccccc1      4

1. O=C(c1c(-c2ncccn2)nn2ccccc12)N1CCC[C@H]1Cn1ccc(-c2ccccn2)n1
2. O=C(c1nn2cccnc2c1-c1ccccn1)N1CCC[C@H]1Cn1cc(-c2ccccn2)cn1
Input: Two entries are listed, 1 and 2 . Which one carries the higher inhibition at 1 µM? State the label of the item chosen.
Output: 2

A. O=C(c1nc2ccccn2c1-c1ccccn1)N1CCC[C@H]1Cn1cc(-c2ccccn2)cn1
B. O=C(c1nc2ccccn2c1-c1ccccc1)N1CCC[C@H]1Cn1ccc(-c2ccccn2)n1
Input: Look at A and B . Which one has the lower recorded inhibition at 1 µM number? State the label of the item chosen.
Output: A
(A: 0%, B: 6%)

A. O=C(c1c(-c2ncccn2)nn2ccccc12)N1[C@@H]2CC[C@@H](C2)[C@H]1COc1ccc(C(F)(F)F)cn1
B. O=C(c1c(-c2ncccn2)nn2ccccc12)N1CCC[C@H]1Cc1nc(-c2ccccn2)no1
C. O=C(c1c(-c2ccccc2F)nn2ccccc12)N1[C@H](Cn2ccc(-c3ccc(F)cc3)n2)C[C@@H]2C[C@@H]21
Input: I would appreciate it if you could sort these 3 compounds by inhibition at 1 µM, starting from the smallest number. Rank them, then answer with their labels in that order.
Output: A, B, C
(A: 0%, B: 12%, C: 87%)

a. O=C(c1c(-c2ccccc2)nn2cccnc12)N1CCC[C@H]1Cn1ccc(-c2ccccc2)n1
b. O=C(c1c(-c2ccccc2)nc2ccccn12)N1[C@@H]2CC[C@@H](C2)[C@H]1COc1ccc(C(F)(F)F)cn1
Input: Hey, which is lower on measured inhibition at 1 µM, a or b ? In your reply, give the label of the chosen option.
Output: b

Numbers sourced from patent US20260070922A1.
